Target: T1, lecithin:cholesterol acyltransferase (LCAT), purified from human plasma (human, UniProt P04180 25-440)
T1 sequence (looked up): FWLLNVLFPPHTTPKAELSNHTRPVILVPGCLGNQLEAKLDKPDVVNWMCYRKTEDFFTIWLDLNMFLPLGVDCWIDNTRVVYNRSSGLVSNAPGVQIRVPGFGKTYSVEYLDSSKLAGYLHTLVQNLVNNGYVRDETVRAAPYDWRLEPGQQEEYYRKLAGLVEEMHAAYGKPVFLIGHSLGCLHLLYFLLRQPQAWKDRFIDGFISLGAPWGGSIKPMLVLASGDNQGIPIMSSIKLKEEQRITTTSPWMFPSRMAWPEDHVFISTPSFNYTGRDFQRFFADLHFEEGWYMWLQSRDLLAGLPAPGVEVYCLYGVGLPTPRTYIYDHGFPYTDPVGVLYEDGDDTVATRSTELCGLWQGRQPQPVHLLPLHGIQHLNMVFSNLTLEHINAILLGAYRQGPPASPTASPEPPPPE
Assay: cell-based or functional assay
Non-standard residues stand in square brackets, D forms with d. No end group written: not given here. Aib = CC(C)(N)C(=O)O
Items are presented alongside their recorded ACTIVITY (%) LCAT.
MEASUREMENT_KIND: ACTIVITY (%) LCAT

INSERT INTO results (binder, measurement_kind, reported_measurement) VALUES
  ('PVLELFLNLLERLGDALQKKLK [peptide 172]', 'ACTIVITY (%) LCAT', '16%'),
  ('PVLDLFERLLNELLEALQKKLK [peptide 80]', 'ACTIVITY (%) LCAT', '9%'),
  ('PVLDEFRELLFE[Aib]LEALKQKLK [peptide 76]', 'ACTIVITY (%) LCAT', '9%'),
  ('PVLDEFRKKLNE[Aib]LEALKQKLK [peptide 69]', 'ACTIVITY (%) LCAT', '13%'),
  ('PVLELFDNLLERLLDALQKKLK [peptide 179]', 'ACTIVITY (%) LCAT', '8%'),
  ('PVLDAFRELLEALLQLKK [peptide 222]', 'ACTIVITY (%) LCAT', '8%'),
  ('PVLDEFREKLNE[Aib]MEALKQKLK [peptide 114]', 'ACTIVITY (%) LCAT', '0%');
